Origin of values: patent US20130231360A1

Biological target: Haspin kinase (Homo sapiens, UniProt Q8TF76)
Construct: This full-length Haspin gene was cloned into the pMALc2E vector; made in house; host or cells: E. coli Rosetta 2(DE3)pLysS
Sequence (Q8TF76 whole entry): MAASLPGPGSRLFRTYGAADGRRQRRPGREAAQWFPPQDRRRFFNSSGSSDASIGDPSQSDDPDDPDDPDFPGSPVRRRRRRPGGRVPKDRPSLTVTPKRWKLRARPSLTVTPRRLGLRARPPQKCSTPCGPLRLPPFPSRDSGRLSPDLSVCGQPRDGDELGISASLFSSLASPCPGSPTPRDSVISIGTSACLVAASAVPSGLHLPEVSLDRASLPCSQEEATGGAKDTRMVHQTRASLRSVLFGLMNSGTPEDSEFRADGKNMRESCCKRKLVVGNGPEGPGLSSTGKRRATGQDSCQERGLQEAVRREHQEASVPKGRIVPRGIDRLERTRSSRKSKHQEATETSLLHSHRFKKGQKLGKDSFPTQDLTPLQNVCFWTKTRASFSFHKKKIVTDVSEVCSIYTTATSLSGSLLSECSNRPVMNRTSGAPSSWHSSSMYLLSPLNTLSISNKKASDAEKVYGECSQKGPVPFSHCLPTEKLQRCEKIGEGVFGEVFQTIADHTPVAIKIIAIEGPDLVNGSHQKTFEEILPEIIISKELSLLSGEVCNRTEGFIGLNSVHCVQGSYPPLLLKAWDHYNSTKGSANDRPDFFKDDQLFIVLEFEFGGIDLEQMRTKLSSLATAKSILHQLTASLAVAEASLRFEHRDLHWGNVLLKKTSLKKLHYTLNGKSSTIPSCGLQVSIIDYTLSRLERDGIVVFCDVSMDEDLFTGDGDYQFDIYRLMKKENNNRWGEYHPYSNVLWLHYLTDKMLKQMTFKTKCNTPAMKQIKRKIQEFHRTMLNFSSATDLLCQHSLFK
Test: TR-FRET Haspin assay
Type: biochemical
Conditions: inhibition of Haspin kinase, TR-FRET assay of Example 3; MBP-Haspin, H3(1-21)-biotin peptide 0.1 μM, ATP 200 μM; read-out: IC50
# IC50 values compiled below

{"columns": ["compound", "IC50"],
 "data": [
  ["COc1ccc2c3ccnc(C)c3n(CCCCN)c2c1 [LDN-209953]", "< 200 nM"],
  ["COc1cccc2c1c1ccnc(C)c1n2CCCCN", "< 3500 nM"],
  ["COc1ccc2c3ccnc(C(C)C)c3n(CCCCN)c2c1", "< 600 nM"],
  ["Cc1nccc2c3ccc(NS(C)(=O)=O)cc3n(CCCCN)c12", "< 1000 nM"],
  ["Cc1nccc2c3cc4c(cc3n(CCCCN)c12)OCO4", "< 700 nM"],
  ["Cc1nccc2c1[nH]c1cc(OCCCCN)ccc12", "< 2000 nM"],
  ["Cc1nccc2c1[nH]c1cc(OCCCN)ccc12", "< 1000 nM"],
  ["Cc1nccc2c3ccc(F)cc3n(CCCCN)c12", "< 600 nM"],
  ["Cc1nccc2c3ccc(O)cc3n(CCCCN)c12", "< 200 nM"]
]}
